# test_details: Aqueous solubility determination (shake flask, UV)
# Type: physicochemical
# test_context: phosphate buffer, pH 7, aqueous buffer, thermodynamic from solid, phosphate buffer pH 7.0, 48 h stirring, filtered, UV; read-out: Solub.
quantity_name: solubility at 48 h (µg/mL)

Please review the following examples before continuing.
C=C(c1ccc([N+](C)(C)C)cc1)c1ccc(OC)c(OC)c1OC.[I-] : 1000
COc1cc(C(=O)c2ccnc(N(C)C)c2)cc(OC)c1OC : 33.8
C=C(c1ccnc(N2CCCC2)c1)c1cc(OC)c(OC)c(OC)c1 : 62
COc1cc(C=Cc2ccc(N(C)C)nc2)cc(OC)c1OC : 44

P = COc1cc(C(=O)c2ccc(N(C)C)nc2)cc(OC)c1OC
Q = COc1ccc(C(=O)c2ccc([N+](C)(C)C)cc2)c(OC)c1OC.[I-]
Input line: # argmax over solubility at 48 h for candidates P and Q Answer by stating the label of the chosen item.
Output line: Q
(Q: 4400 µg/mL, P: 10.5 µg/mL)

###

# Test system: HeLa, HT-29 and MCF-7 human tumor cell lines
# test_details: Antiproliferative activity over the three human tumor cell lines (MTT)
# Format: cell-based
# test_context: range over the cell lines, Table S1; heading: Cytotoxicity range; read-out: Cytotoxicity range (range of antiproliferative IC50 values)
quantity_name: IC50

Input line: Form field: reported IC50 of COc1cc(C(=NO)c2ccc(N3CCCC3)nc2)cc(OC)c1OC [Compound Z-2c]
Output line: > 1000 nM

###

Measured IC50, listed per entry.
# System: HeLa, HT-29 and MCF-7 human tumor cell lines
# test_details: Antiproliferative activity over the three human tumor cell lines (MTT)
# Format: cell-based
# test_context: Homo sapiens, range over the cell lines, Table S1; read-out: Cytotoxicity range (range of antiproliferative IC50 values)

Please review the following examples before continuing.
COc1ccc(OC)c(C(=NO)c2ccc(N(C)C)cc2)c1 : > 1000 nM
COc1ccc(C(=NO)c2ccc(N(C)C)cc2)c(OC)c1OC : 277 to 677 nM
COc1cc(C(=O)c2ccnc(N3CCCC3)c2)cc(OC)c1OC : 17 to 71 nM
COc1ccc(C(=O)c2ccc(N(C)C)cc2)c(OC)c1OC : 407 to 650 nM
COc1cc(C(=O)c2ccc(N3CCCC3)nc2)cc(OC)c1OC : > 1000 nM
COc1cc(C=Cc2ccc(N(C)C)cc2)cc(OC)c1OC : 102 to 503 nM

Input line: Form field: reported IC50 of C=C(c1ccc(N(C)C)cc1)c1cc(OC)ccc1OC
Output line: > 1000 nM

Input line: Form field: reported IC50 of COc1cc(C(=NO)c2ccc([N+](C)(C)C)cc2)cc(OC)c1OC
Output line: > 1000 nM

Input line: Form field: reported IC50 of COc1cc(C(=O)c2cccc(N(C)C)c2)cc(OC)c1OC
Output line: 180 to 460 nM

###

# Tested on: rat primary pancreatic cells
# test_details: Toxicity against rat primary pancreatic cells (MTT)
# test_context: rat, 7 h, 0.5 µM, pH 7.4
quantity_name: live cells with respect to the non-treated control (means ± S.E.M.) (%)
Expressed in %, but write only the number.

Input line: Form field: reported live cells with respect to the non-treated control (means ± S.E.M.) of COc1cc(C(=O)c2ccnc(N3CCCC3)c2)cc(OC)c1OC
Output line: 102.59

Input line: Form field: reported live cells with respect to the non-treated control (means ± S.E.M.) of COc1cc(C(=O)c2cccc(N(C)C)c2)cc(OC)c1OC
Output line: 95.97

Input line: Form field: reported live cells with respect to the non-treated control (means ± S.E.M.) of C=C(c1ccc(N(C)C)nc1)c1cc(OC)c(OC)c(OC)c1
Output line: 94.06

Input line: Form field: reported live cells with respect to the non-treated control (means ± S.E.M.) of COc1cc(C=Cc2ccc(N(C)C)nc2)cc(OC)c1OC
Output line: 91.65
